# Experimental system: T1, full length recombinant human 2N4R tau (amino acids 1-441) (human, UniProt P10636 1-758)
# T1 construct: Bought (rPeptide); recombinant, non-phosphorylated; also called recombinant tau
# T1 sequence (P10636 other isoform, or with tags, fused parts or gaps limits assumed): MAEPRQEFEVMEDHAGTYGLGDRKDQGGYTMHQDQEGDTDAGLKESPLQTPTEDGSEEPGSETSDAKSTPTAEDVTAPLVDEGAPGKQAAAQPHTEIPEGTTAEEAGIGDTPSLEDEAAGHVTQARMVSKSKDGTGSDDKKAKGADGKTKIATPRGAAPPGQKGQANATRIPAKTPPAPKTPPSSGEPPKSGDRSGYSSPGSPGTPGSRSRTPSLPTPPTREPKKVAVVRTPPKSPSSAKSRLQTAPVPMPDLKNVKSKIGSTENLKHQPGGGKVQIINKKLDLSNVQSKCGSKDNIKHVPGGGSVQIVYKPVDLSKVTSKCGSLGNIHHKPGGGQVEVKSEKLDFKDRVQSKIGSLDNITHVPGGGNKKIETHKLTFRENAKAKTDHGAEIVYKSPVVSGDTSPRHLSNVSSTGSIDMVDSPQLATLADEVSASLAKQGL
# Protocol details: SPR Biacore SCK, IgG on Protein A, tau analyte
For each of the binders below, state its kon.
Expressed in M⁻¹ s⁻¹, but write only the number.

**Query** Find the recorded kon belonging to Clone 24 (VH3Vκ4), humanised variant of clone #28, human IgG1 (antibody, V domains shown, also called VH3VK4; VH3Vk4) VH: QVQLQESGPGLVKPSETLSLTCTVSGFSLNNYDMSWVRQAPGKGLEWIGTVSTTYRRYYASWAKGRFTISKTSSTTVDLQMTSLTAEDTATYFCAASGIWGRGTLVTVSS VL: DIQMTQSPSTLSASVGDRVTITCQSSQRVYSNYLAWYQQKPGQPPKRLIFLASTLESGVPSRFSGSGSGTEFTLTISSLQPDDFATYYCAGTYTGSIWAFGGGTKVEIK and report it.
**Result** 68900

**Query** Now this one: Clone 16 (VH1Vκ4), humanised variant of clone #28, human IgG1 (antibody, V domains shown, also called VH1VK4) VH: QSLQESGGGLVKPSETLSLTCTVSGFSLNNYDMSWVRQAPGKGLEWIGTVSTTYRRYYASWAKGRFTISKTSSTTVDLKMTSLTAEDTATYFCAASGIWGRGTLVTVSS VL: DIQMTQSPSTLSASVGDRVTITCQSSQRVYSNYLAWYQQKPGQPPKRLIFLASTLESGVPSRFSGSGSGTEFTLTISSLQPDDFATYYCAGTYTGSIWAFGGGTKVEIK
**Result** 66300
